# system: Heat shock factor protein 1 (Mus musculus)
# Sequence (P38532 whole entry): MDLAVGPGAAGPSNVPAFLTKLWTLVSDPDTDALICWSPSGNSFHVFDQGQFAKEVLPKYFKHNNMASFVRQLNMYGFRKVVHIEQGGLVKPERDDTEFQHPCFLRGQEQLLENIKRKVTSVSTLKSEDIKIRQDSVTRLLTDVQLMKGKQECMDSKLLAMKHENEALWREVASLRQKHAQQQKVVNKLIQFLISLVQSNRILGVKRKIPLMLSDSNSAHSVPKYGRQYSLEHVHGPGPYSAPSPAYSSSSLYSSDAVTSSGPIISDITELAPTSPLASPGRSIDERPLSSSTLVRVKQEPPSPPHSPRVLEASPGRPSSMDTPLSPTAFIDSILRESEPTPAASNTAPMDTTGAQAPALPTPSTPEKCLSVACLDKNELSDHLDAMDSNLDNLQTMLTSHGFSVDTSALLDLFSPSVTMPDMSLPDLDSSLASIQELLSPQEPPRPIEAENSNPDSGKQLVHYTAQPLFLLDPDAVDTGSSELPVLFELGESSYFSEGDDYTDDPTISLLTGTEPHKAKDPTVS
# assayComment: inhibition of MG132-induced HSE-luciferase signal, confirmation, cell-based, NIH3T3, luminescence, dose retest (AID 2382);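 further: NIH3T3 fibroblasts with HSF1-driven luciferase reporter stressed by proteasome inhibitor MG132; luminescence from HSF1-driven luciferase expression after 8 hours of MG132 stress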
# Type: functional
Activity calls are given as the source filed them. No stated cut-off is given here; in the data, actives have a measured EC50 and inactives only a lower limit.
Would you kindly list EC50 for each of these compounds?

Solved entries (count: 2):
                             compoundsmiles                                    system  measurementlabel                 result
0  COc1ccccc1N1CCN(Cc2cc(Br)c(O)c3ncccc23)CC1  Heat shock factor protein 1 (Mus musculus)              EC50      0.482 µM (active)
1  COC(=O)c1c(C)[nH]c(C)c1-c1cccc([N+](=O)[O-])c1  Heat shock factor protein 1 (Mus musculus)              EC50  > 195 µM (not active)

Exercise: For "O=C[C@H](O)[C@@H](O)[C@H](O)CO" , what is its reported EC50?
Solution: > 195 µM (not active)
